# Experimental Protocol: CCTE_Mundy_HCI_Cortical_Synap_Neur_Matur_CellBodySpotCount: CCTE's Synaptogenesis and Neurite Maturation Assay in rat cortical cells for Cell Body Spot Count, Mundy Lab (AID 2284223)
Calls of active or inactive are those of the source. Rule for the calls: active = hit-call score of the fitted dose curve at least 0.9, where 1 is the maximum; inactive = score below 0.9.
Measured Attribute: AC50

>>> result("CO/N=C(/C(=O)OC)c1ccccc1COc1ccccc1C")
"3.33 µM (active)"
>>> result("O=C(O)C(F)(OC(F)(F)C(F)(F)C(F)(F)F)C(F)(F)F (centres undefined)")
"inactive"
>>> result("CCOc1ccc(C(C)(C)COCc2cccc(Oc3ccccc3)c2)cc1")
"inactive"
>>> result("CCC1(c2ccccc2)C(=O)N=C(O)NC1=O (centres undefined)")
"inactive"

These entries and their values trace back to PubChem BioAssay (EPA / NIEHS).
